- TARGET_SYSTEM: GST-Co-NF-kB (Capsaspora owczarzaki, UniProt F1ARL5 200-546)
- Sequence: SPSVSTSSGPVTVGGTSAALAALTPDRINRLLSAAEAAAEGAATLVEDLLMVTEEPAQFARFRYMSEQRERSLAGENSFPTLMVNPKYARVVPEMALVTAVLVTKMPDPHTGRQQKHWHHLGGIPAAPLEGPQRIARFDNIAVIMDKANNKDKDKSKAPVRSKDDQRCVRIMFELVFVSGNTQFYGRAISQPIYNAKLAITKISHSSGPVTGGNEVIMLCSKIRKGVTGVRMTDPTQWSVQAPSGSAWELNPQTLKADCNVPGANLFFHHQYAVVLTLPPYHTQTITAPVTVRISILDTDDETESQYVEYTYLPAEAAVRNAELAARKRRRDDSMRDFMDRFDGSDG
- ASSAY_PROCEDURE: protein-binding microarray (PBM); PBM: ~300 nM protein, 6 mM HEPES pH 7.8, 80 mM KCl, 0.5 mM EDTA, 0.5 mM EGTA, 6% glycerol, 35 ng/ul poly-dIdC, 1% milk, 1 h, room temperature; Ap Aiptasia and Nv Nematostella (sea anemones) / Co Capsaspora / Aq Amphimedon (sponge) / Dm Drosophila / Hu human; RHD is the Rel homology domain; high values mean tight binding
- MEASUREMENT_CONDITIONS: dsDNA, one strand shown
MEASUREMENT_KIND: binding signal (z-score)
Report only the number, with the unit z-score understood.

Some sequences with recorded binding signal:
{"columns": ["SEQUENCE_STRING", "TARGET_SYSTEM", "OUTPUT_UNIT", "binding signal"],
 "data": [
  ["CCGATTAACATCAGGGGAACTCATGATGTTAATCGGGTCTTGATTCGCTTGACGCTGCTG", "GST-Co-NF-kB (Capsaspora owczarzaki, UniProt F1ARL5 200-546)", "z-score", 5.3],
  ["CCGATTAACATCAGGGAAACCCCTGATGTTAATCGGGTCTTGATTCGCTTGACGCTGCTG", "GST-Co-NF-kB (Capsaspora owczarzaki, UniProt F1ARL5 200-546)", "z-score", 5.51],
  ["CCGATTAACATCAAAGATCCCCCTGATGTTAATCGGGTCTTGATTCGCTTGACGCTGCTG", "GST-Co-NF-kB (Capsaspora owczarzaki, UniProt F1ARL5 200-546)", "z-score", 6.69],
  ["CCGATTAACATCACGGGGGGTACTGATGTTAATCGGGTCTTGATTCGCTTGACGCTGCTG", "GST-Co-NF-kB (Capsaspora owczarzaki, UniProt F1ARL5 200-546)", "z-score", 4.54],
  ["CCGATTAACATCACGGGAACTCCTGATGTTAATCGGGTCTTGATTCGCTTGACGCTGCTG", "GST-Co-NF-kB (Capsaspora owczarzaki, UniProt F1ARL5 200-546)", "z-score", 1.84],
  ["CCGATTAACATCACGGGCACCCCTGATGTTAATCGGGTCTTGATTCGCTTGACGCTGCTG", "GST-Co-NF-kB (Capsaspora owczarzaki, UniProt F1ARL5 200-546)", "z-score", 1.34],
  ["CCGATTAACATCAAATACCCCCATGATGTTAATCGGGTCTTGATTCGCTTGACGCTGCTG", "GST-Co-NF-kB (Capsaspora owczarzaki, UniProt F1ARL5 200-546)", "z-score", 5.57],
  ["CCGATTAACATCACGGGAGTCCCTGATGTTAATCGGGTCTTGATTCGCTTGACGCTGCTG", "GST-Co-NF-kB (Capsaspora owczarzaki, UniProt F1ARL5 200-546)", "z-score", 1.57]
]}

Please examine the following record next.
GST-Co-NF-kB (Capsaspora owczarzaki, UniProt F1ARL5 200-546) data for `CCGATTAACATCAGATATCCCCCTGATGTTAATCGGGTCTTGATTCGCTTGACGCTGCTG` ; its binding signal: 6.39
